procedure-summary: The drug is tested on Bacteroides vulgatus strain: ATCC8482 for biotransformation. The drug concentrations were measured before and after a 12-h incubation by liquid-chromatography-coupled mass spectrometry (LC–MS)
cond: phocaeicola vulgatus, 2 µM
Non-standard residues stand in square brackets, D forms with d. Residues, ends and D or L forms follow the SMILES beside them. pGlu = O=C1CC[C@@H](C(=O)O)N1; Thz = O=C(O)[C@@H]1CSCN1
metric-name: Bacterial Biotransformation

CC[C@@]1(O)C(=O)OCc2c1cc1n(c2=O)Cc2cc3c(CN(C)C)c(O)ccc3nc2-1 | Compound NOT metabolized
CNNCc1ccc(C(=O)NC(C)C)cc1 | Compound NOT metabolized
O=c1[nH]c2ccccc2n1CCCN1CCC(n2c(=O)[nH]c3cc(Cl)ccc32)CC1 | Compound NOT metabolized
CC(C)(C(=O)O)c1ccc(C(O)CCCN2CCC(C(O)(c3ccccc3)c3ccccc3)CC2)cc1 (stereo not drawn) [FEXOFENADINE] | Compound NOT metabolized
COc1ccc2[nH]c([S+]([O-])Cc3ncc(C)c(OC)c3C)nc2c1 (stereo not drawn) | Compound metabolized

// each listed compound needs a value for Bacterial Biotransformation
1. CNCCC(Oc1ccc(C(F)(F)F)cc1)c1ccccc1 (stereo not drawn)
2. O=C1CC[C@@H](C(=O)N2CSC[C@H]2C(=O)O)N1 [PIDOTIMOD] ([pGlu]-[Thz]-OH)
3. Nc1nc(N)nc(-c2cc(Cl)ccc2Cl)n1.O=C(O)/C=C\C(=O)O [IRSOGLADINE MALEATE]

["Compound metabolized", "Compound NOT metabolized", "Compound NOT metabolized"]

* * *

procedure-summary: The drug is tested on Clostridium sporogenes strain: ATCC15579 for biotransformation. The drug concentrations were measured before and after a 12-h incubation by liquid-chromatography-coupled mass spectrometry (LC–MS)
cond: 2 µM
metric-name: Bacterial Biotransformation

Previously resolved entries follow.
CO[C@]12C[C@@H](COC(=O)c3cncc(Br)c3)CN(C)[C@@H]1Cc1cn(C)c3cccc2c13 | Compound NOT metabolized
CCN(CC)CC#CCOC(=O)C(O)(c1ccccc1)C1CCCCC1.Cl (stereo not given) [OXYBUTYNIN CHLORIDE] | Compound NOT metabolized
O=C(O)COCCN1CCN(C(c2ccccc2)c2ccc(Cl)cc2)CC1 (stereo not given) | Compound NOT metabolized
Cc1ccc(S(=O)(=O)NC(=O)NN2CC3CCCC3C2)cc1 (stereo not given) [GLICLAZIDE] | Compound NOT metabolized
CNCCC(Oc1ccc(C(F)(F)F)cc1)c1ccccc1 (stereo not given) | Compound metabolized
COc1c(C)c2c(c(O)c1C/C=C(\C)CCC(=O)OCCN1CCOCC1)C(=O)OC2 [MYCOPHENOLATE MOFETIL] | Compound metabolized
CCN(CC)CCNC(=O)c1ccc(NC(C)=O)cc1 [ACECAINIDE] | Compound NOT metabolized
CC(C)(C)NC[C@H](O)COc1nsnc1N1CCOCC1.O=C(O)/C=C\C(=O)O [TIMOLOL MALEATE] | Compound NOT metabolized
COc1ccc2c3c1O[C@H]1C[C@@H](O)C=C[C@@]31CCN(C)C2 | Compound NOT metabolized
COCCc1ccc(OCC(O)CNC(C)C)cc1.COCCc1ccc(OCC(O)CNC(C)C)cc1.O=C(O)C(O)C(O)C(=O)O (stereo not given) [METOPROLOL TARTRATE] | Compound NOT metabolized

// each listed compound needs a value for Bacterial Biotransformation
1. C=CCc1ccccc1OCC(O)CNC(C)C (stereo not given)
2. COC1=C(OC)C(=O)C(CCCCCCCCCCO)=C(C)C1=O
3. COc1ccccc1OCCNCC(O)COc1cccc2[nH]c3ccccc3c12 (stereo not given)

["Compound NOT metabolized", "Compound metabolized", "Compound metabolized"]

// each listed compound needs a value for Bacterial Biotransformation
1. C[N+]12CCC(CC1)C(OC(=O)C(O)(c1ccccc1)c1ccccc1)C2.[Br-] (stereo not given) [CLIDINIUM BROMIDE]
2. CCS(=O)(=O)CCn1c([N+](=O)[O-])cnc1C
3. Cc1cn([C@H]2C[C@H](N=[N+]=[N-])[C@@H](CO)O2)c(=O)[nH]c1=O

["Compound NOT metabolized", "Compound metabolized", "Compound metabolized"]

// each listed compound needs a value for Bacterial Biotransformation
1. CNC(=C[N+](=O)[O-])NCCSCc1csc(CN(C)C)n1
2. CC(C)(C)NC(=O)[C@H]1CC[C@H]2[C@@H]3CC[C@H]4NC(=O)C=C[C@]4(C)[C@H]3CC[C@]12C [FINASTERIDE]
3. CN1CCN(C2=Nc3ccccc3Oc3ccc(Cl)cc32)CC1.O=C(O)CCC(=O)O [LOXAPINE SUCCINATE]
4. N#Cc1ccc2[nH]cc(CCCCN3CCN(c4ccc5oc(C(N)=O)cc5c4)CC3)c2c1
5. COc1c2occc2cc2ccc(=O)oc12
6. O=C(O)CCc1nc(-c2ccccc2)c(-c2ccccc2)o1
7. COC(=O)C1=C(C)NC(C)=C(C(=O)OC(C)C)C1c1cccc2nonc12 (stereo not given)

1: Compound NOT metabolized; 2: Compound NOT metabolized; 3: Compound NOT metabolized; 4: Compound metabolized; 5: Compound metabolized; 6: Compound NOT metabolized; 7: Compound NOT metabolized

// each listed compound needs a value for Bacterial Biotransformation
1. CC[C@H](C)C(=O)O[C@H]1CCC=C2C=C[C@H](C)[C@H](CC[C@@H]3C[C@@H](O)CC(=O)O3)[C@H]21
2. CC1Cc2ccccc2N1NC(=O)c1ccc(Cl)c(S(N)(=O)=O)c1 (stereo not given) [INDAPAMIDE]

1: Compound metabolized; 2: Compound NOT metabolized

* * *

procedure-summary: The drug is tested on Bacteroides coprophilus strain: DSM18228 for biotransformation. The drug concentrations were measured before and after a 12-h incubation by liquid-chromatography-coupled mass spectrometry (LC–MS)
cond: 2 µM
metric-name: Bacterial Biotransformation

Previously resolved entries follow.
Nc1nc2ccc(OC(F)(F)F)cc2s1 | Compound NOT metabolized
CN1CCN(C(=O)O[C@H]2c3nccnc3C(=O)N2c2ccc(Cl)cn2)CC1 | Compound NOT metabolized
COc1ccc(CCN(C)CCCC(C#N)(c2ccc(OC)c(OC)c2)C(C)C)cc1OC (stereo not drawn) | Compound NOT metabolized
CCN(CC)CCNC(=O)c1ccc(NC(C)=O)cc1 [ACECAINIDE] | Compound NOT metabolized
Cc1ccnc2c1NC(=O)c1cccnc1N2C1CC1 | Compound NOT metabolized
CCN(CC)CCCC(C)Nc1c2ccc(Cl)cc2nc2ccc(OC)cc12 (stereo not drawn) | Compound NOT metabolized

// each listed compound needs a value for Bacterial Biotransformation
1. CC(C)(C)NC[C@H](O)COc1nsnc1N1CCOCC1.O=C(O)/C=C\C(=O)O [TIMOLOL MALEATE]
2. CN(C)C(=O)C(CCN1CCC(O)(c2ccc(Cl)cc2)CC1)(c1ccccc1)c1ccccc1 [LOPERAMIDE]
3. CC1OC(OC2C(O)CC(OC3C(O)CC(OC4CCC5(C)C(CCC6C5CCC5(C)C(C7=CC(=O)OC7)CCC65O)C4)OC3C)OC2C)CC(O)C1O (stereo not drawn)
4. OCCOCCN1CCN(C2=Nc3ccccc3Sc3ccccc32)CC1

1: Compound NOT metabolized; 2: Compound metabolized; 3: Compound metabolized; 4: Compound NOT metabolized

// each listed compound needs a value for Bacterial Biotransformation
1. CC[C@@]1(O)C(=O)OCc2c1cc1n(c2=O)Cc2cc3c(CN(C)C)c(O)ccc3nc2-1
2. CC(=O)OCC(=O)[C@@]12N=C(C)O[C@@H]1C[C@H]1[C@@H]3CCC4=CC(=O)C=C[C@]4(C)[C@H]3[C@@H](O)C[C@@]12C
3. COc1ccccc1OCC(O)CN1CCN(CC(=O)Nc2c(C)cccc2C)CC1 (stereo not drawn)
4. CC(C(=O)O)c1ccc2c(c1)Cc1cccnc1O2 (stereo not drawn)
5. Cc1nc(Nc2ncc(C(=O)Nc3c(C)cccc3Cl)s2)cc(N2CCN(CCO)CC2)n1.O
6. COc1ccc([C@@H]2Sc3ccccc3N(CCN(C)C)C(=O)[C@@H]2OC(C)=O)cc1
7. CC(C)(C)NC(=O)[C@H]1CC[C@H]2[C@@H]3CC[C@H]4NC(=O)C=C[C@]4(C)[C@H]3CC[C@]12C [FINASTERIDE]
8. CC(C)NCC(O)COc1ccc(CCOCC2CC2)cc1 (stereo not drawn)

Compound NOT metabolized
Compound metabolized
Compound NOT metabolized
Compound metabolized
Compound NOT metabolized
Compound metabolized
Compound NOT metabolized
Compound NOT metabolized

* * *

procedure-summary: The drug is tested on Bacteroides fragilis strain: HMW610 for biotransformation. The drug concentrations were measured before and after a 12-h incubation by liquid-chromatography-coupled mass spectrometry (LC–MS)
cond: 2 µM
metric-name: Bacterial Biotransformation

Previously resolved entries follow.
O=C([O-])C[C@H](O)C[C@H](O)/C=C/c1c(C2CC2)nc2ccccc2c1-c1ccc(F)cc1.O=C([O-])C[C@H](O)C[C@H](O)/C=C/c1c(C2CC2)nc2ccccc2c1-c1ccc(F)cc1.[Ca+2] | Compound NOT metabolized
CC(C)NCC(O)c1ccc(NS(C)(=O)=O)cc1 (stereo not drawn) | Compound metabolized
COC(=O)C(c1ccccc1)C1CCCCN1 (stereo not drawn) [METHYLPHENIDATE] | Compound NOT metabolized
Cc1ccc(-c2nc3ccc(C)cn3c2CC(=O)N(C)C)cc1 | Compound NOT metabolized
CS(=O)(=O)O.OC(CCN1CCCCC1)(c1ccccc1)c1ccccc1 [PRIDINOL METHANESULFONATE] | Compound NOT metabolized

// each listed compound needs a value for Bacterial Biotransformation
1. CCCc1nc2c(C)cc(-c3nc4ccccc4n3C)cc2n1Cc1ccc(-c2ccccc2C(=O)O)cc1
2. Cc1ccc(-c2cc(C(F)(F)F)nn2-c2ccc(S(N)(=O)=O)cc2)cc1
3. Br.CN(C)CCCC1(c2ccc(F)cc2)OCc2cc(C#N)ccc21 (stereo not drawn) [CITALOPRAM HYDROBROMIDE]

["Compound metabolized", "Compound NOT metabolized", "Compound NOT metabolized"]
